# assay text: chemical genetic growth profiling, strain panel (AID 1159580);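 also: tested at 20 µM; growth read once vehicle control cultures reached saturation at 30 °C; 1 = growth at the plate median or of vehicle wells; lower values mean less growth of the strain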
# applied conditions: S. cerevisiae deletion strains, growth OD, locus YJL168C, strain set2, active compounds read low
Hit rate of the full screen: of about 5,500 compounds, about 2,000 (36%) were called active. Not shown: some 18% with an inconclusive outcome. Some of the results follow.
experimental readout: normalized growth

molecule="C=C1CCC2[C@](C)(CO)[C@H](O)CC[C@@]2(C)[C@@H]1C/C=C1/C(=O)OC[C@H]1O (stereo partly specified)" experimental_readout="normalized growth" result="1.02 (inactive)"
molecule=CC[C@@]1(O)C[C@H](O[C@H]2C[C@H](N(C)C)[C@H](O)[C@H](C)O2)c2c(cc3c(c2O)C(=O)c2c(O)ccc(O)c2C3=O)[C@H]1C(=O)OC experimental_readout="normalized growth" result="0.272 (active)"
molecule=O=C(O)CCCc1ccc(N(CCCl)CCCl)cc1 experimental_readout="normalized growth" result="0.984 (inactive)"
molecule=CCCCCCCCC(=O)NCc1ccc(O)c(OC)c1 experimental_readout="normalized growth" result="0.99 (inactive)"
molecule=Cc1ncc(CNC(=O)N(CCCl)N=O)c(N)n1 experimental_readout="normalized growth" result="0.99 (inactive)"

# input Hello, please tell me recorded normalized growth for this one: Cc1[nH]c2ccccc2c1CN(C)C
# output 0.993 (inactive)

====

# assay text: chemical genetic growth profiling, strain panel (AID 1159580)
# applied conditions: S. cerevisiae deletion strains, growth OD, locus YDL028C, strain MPS1, active compounds read low
The campaign covered roughly 5,500 compounds. About 2,000 (36%) were called active. Roughly 18% stayed inconclusive and do not appear here. Some of the results follow.
experimental readout: normalized growth

Examples with answers:
entry_smiles=O=C(c1csc(-c2ccc(Cl)cc2)c1)N1CCCCC1 experimental_readout="normalized growth" result="0.951 (inactive)"
entry_smiles=Cc1ccc(Nc2ccnc3cc(Cl)ccc23)cc1F experimental_readout="normalized growth" result="0.991 (inactive)"
entry_smiles=CC1(C)CC(=O)C=C(Sc2nc3ccccc3o2)C1 experimental_readout="normalized growth" result="0.965 (inactive)"

Kindly review the next compound as well.
# input Tell me its normalized growth given Cc1cc(C)cc(Sc2ccc3nnc(-c4ccccc4)n3n2)c1 as the entry.
# output 1 (inactive)

====

# assay text: chemical genetic growth profiling, strain panel (AID 1159580)
# applied conditions: S. cerevisiae deletion strains, growth OD, locus YBL061C, strain skt5, active compounds read low
Among all 5,500 compounds or so, about 2,000 (36%) were called active. Another 18% or so got no clear call; they are omitted. Some of the results follow.
# normalized growth annotations
Just the number, please, no unit after it.

# annotated cases, reported normalized growth shown
compound=O=C1NCC2(CCN(CCc3ccccc3)CC2)O1 quantitative_readout=0.983
compound="OCC(O)CN1CCN(c2ccccc2)CC1 (stereo not drawn)" quantitative_readout=0.989
compound=O=C(O)c1cc2cc(F)ccc2[nH]1 quantitative_readout=0.99
compound=CC(=O)Oc1cc(OC(C)=O)c2c(c1)O[C@H](c1ccc(OC(C)=O)c(OC(C)=O)c1)[C@H](OC(C)=O)C2 quantitative_readout=0.994
compound=O=C(c1ccc(OCCN2CCCCC2)cc1)c1c(-c2ccc(O)cc2)sc2cc(O)ccc12 quantitative_readout=1.01
compound=Cc1ccc(C(=O)Nc2ccc(S(=O)(=O)O)c3cc(S(=O)(=O)O)cc(S(=O)(=O)O)c23)cc1NC(=O)c1cccc(NC(=O)Nc2cccc(C(=O)Nc3cc(C(=O)Nc4ccc(S(=O)(=O)O)c5cc(S(=O)(=O)O)cc(S(=O)(=O)O)c45)ccc3C)c2)c1 quantitative_readout=1.01
compound="COc1cc2nc(N(C)CCCNC(=O)C3CCCO3)nc(N)c2cc1OC (stereo not drawn)" quantitative_readout=0.986
compound="Cc1ccccc1C(OCCN(C)C)c1ccccc1 (stereo not drawn)" quantitative_readout=1
compound="Clc1ccc(C(OCCN2CCCCC2)c2ccccc2)cc1 (stereo not drawn)" quantitative_readout=1.02
compound=CCn1cc(C(=O)O)c(=O)c2cc(F)c(N3CCNCC3)nc21 quantitative_readout=0.991

# input Give normalized growth for CN1CCC(OC(c2ccccc2)c2ccccc2)CC1
# output 1

# input Respond only with normalized growth recorded for Cc1ccc(S(=O)(=O)NC(=O)NN2CCCCCC2)cc1
# output 0.986

# input Read the entry CC#CC1(O)CCC2C3CCC4=CC(=O)CCC4=C3C(c3ccc(N(C)C)cc3)CC21C (stereo not drawn) and write its reported normalized growth.
# output 0.999

# input Output normalized growth of C=CC[C@]1(O)CCC2C3CCC4=CC(=O)CCC4=C3C=C[C@@]21C (stereo partly drawn)
# output 0.989

# input Please give measured normalized growth of the following entry: NCCc1cnc[nH]1
# output 1.02

# input Given the compound CCN(CC)C(=O)N1CCN(C)CC1 , write its reported normalized growth.
# output 0.976

# input Tell me measured normalized growth for COc1c(N2CCNC(C)C2)c(F)cc2c(=O)c(C(=O)O)cn(C3CC3)c12 (stereo not drawn) please.
# output 0.992

# input Please give the documented normalized growth of COc1ccc2c(c1)OC/C(=C/c1ccc(OC)c(OC)c1)C2=O
# output 1

====

# assay text: chemical genetic growth profiling, strain panel (AID 1159580);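 also: tested at 20 µM; growth read once vehicle control cultures reached saturation at 30 °C; 1 = growth at the plate median or of vehicle wells; lower values mean less growth of the strain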
# applied conditions: S. cerevisiae deletion strains, growth OD, locus YNL248C, strain rpa49, active compounds read low
About 2,000 (36%) of roughly 5,500 compounds were called active. Another 18% or so got no clear call; they are omitted. The list shows a part of the results.
normalized growth values by entry
Number, no unit, nothing else.

Worked set:
compound=O=C(Oc1cc(O)cc2c1C[C@@H](OC(=O)c1cc(O)c(O)c(O)c1)[C@@H](c1cc(O)c(O)c(O)c1)O2)c1cc(O)c(O)c(O)c1 experimental_readout="normalized growth" quantitative_readout=1.03
compound=CCn1cc(C(=O)O)c(=O)c2cc(F)c(N3CCNCC3)nc21 experimental_readout="normalized growth" quantitative_readout=0.989
compound="CC1CCc2cc(F)cc3c(=O)c(C(=O)O)cn1c23 (centres undefined)" experimental_readout="normalized growth" quantitative_readout=0.971
compound="CN1C2CCC1CC(OC(c1ccccc1)c1ccccc1)C2 (centres undefined)" experimental_readout="normalized growth" quantitative_readout=0.969
compound=O=C(Oc1cc(OC(=O)c2ccccc2)c2c(c1)O[C@H](c1ccc(OC(=O)c3ccccc3)c(OC(=O)c3ccccc3)c1)[C@@H](OC(=O)c1ccccc1)C2)c1ccccc1 experimental_readout="normalized growth" quantitative_readout=1.01
compound="CO/N=C1/CN(c2nc3c(cc2F)c(=O)c(C(=O)O)cn3C2CC2)CC1CN (centres undefined)" experimental_readout="normalized growth" quantitative_readout=1.02
compound=CN1C2C[C@H](OC(=O)[C@H](CO)c3ccccc3)C[C@H]1[C@@H](O)C2 experimental_readout="normalized growth" quantitative_readout=0.941
compound=CC(=O)Oc1cc(OC(C)=O)c2c(c1)O[C@H](c1ccc(OC(C)=O)c(OC(C)=O)c1)[C@@H](OC(C)=O)C2 experimental_readout="normalized growth" quantitative_readout=1.01

Now for the compound whose normalized growth we want.
# input Determine from records and report normalized growth for N[C@@H](Cc1ccc(N(CCCl)CCCl)cc1)C(=O)O
# output 0.978

====

# assay text: chemical genetic growth profiling, strain panel (AID 1159580);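 also: tested at 20 µM; growth read once vehicle control cultures reached saturation at 30 °C; 1 = growth at the plate median or of vehicle wells; lower values mean less growth of the strain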
# applied conditions: S. cerevisiae deletion strains, growth OD, locus YNL222W, strain SSU72
In all, about 5,500 compounds went through this assay and about 2,000 (36%) were called active. Not shown: some 18% with an inconclusive outcome. Cut-off read from the data, not from the text of the source: active = normalized growth mostly below about 0.91 (no sharp cut-off); inconclusive = no clear call, values can overlap the other calls; inactive = mostly above about 0.92. The list shows a part of the results.
Mark one answer only. Choices: active, inactive

entry_smiles=Cc1c(C(=O)Sc2ccc(F)cc2F)sc2nc(C(F)(F)F)nn12 assigned_category=active
entry_smiles=Cc1nn(C)c(C(=O)Sc2ccc(OC(F)(F)F)cc2)c1[N+](=O)[O-] assigned_category=inactive
entry_smiles=N#C/C(=N/Nc1ccccc1)C(=O)c1ccccc1OC(F)(F)F assigned_category=inactive

# input Short answer needed: outcome of this test for Oc1c(Cl)cc(Cl)cc1C=Nc1nc(-c2ccc3ccccc3c2)cs1 ?
# output inactive

====

Catalogue of compounds with associated normalized growth
# assay text: chemical genetic growth profiling, strain panel (AID 1159580);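 also: tested at 20 µM; growth read once vehicle control cultures reached saturation at 30 °C; 1 = growth at the plate median or of vehicle wells; lower values mean less growth of the strain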
# applied conditions: S. cerevisiae deletion strains, growth OD, locus YER167W, strain BCK2, active compounds read low
Out of some 5,500 compounds screened, about 2,000 (36%) were called active. About 18% were inconclusive and are not listed. This is one part of the list.
Returns: the value as a bare number; no unit string appended.

Field: example entries. Status: answers known.
compound=Cc1ncc(CNC(=O)N(CCCl)N=O)c(N)n1 experimental_readout="normalized growth" quantitative_readout=1.01
compound=CC[C@@]1(O)C[C@H](O)c2c(cc3c(c2O)C(=O)c2c(O)ccc(O)c2C3=O)[C@H]1C(=O)OC experimental_readout="normalized growth" quantitative_readout=0.713
compound=CNC(=O)O/N=C(\C)SC experimental_readout="normalized growth" quantitative_readout=0.993
compound=CC[C@@]1(O)C[C@H](O[C@H]2C[C@H](N(C)C)[C@H](O)[C@H](C)O2)c2c(cc3c(c2O)C(=O)c2c(O)ccc(O)c2C3=O)[C@H]1C(=O)OC experimental_readout="normalized growth" quantitative_readout=0.0725
compound=CC1(C)S[C@@H]2[C@H](NC(=O)[C@H](N)c3ccccc3)C(=O)N2[C@H]1C(=O)O experimental_readout="normalized growth" quantitative_readout=1.01

# input Consider the compound CC[C@@]1(O)C[C@H](O[C@H]2C[C@H](N(C)C)[C@H](O)[C@H](C)O2)c2c(cc3c(c2O)C(=O)c2c(O)cccc2C3=O)[C@H]1C(=O)OC and give its recorded normalized growth.
# output 0.884

# input Identify normalized growth associated with the compound CCC1(O)CC(OC2CC(N(C)C)C(OC3CC(O)C(OC4CCC(=O)C(C)O4)C(C)O3)C(C)O2)c2c(cc3c(c2O)C(=O)c2c(O)cccc2C3=O)C1C(=O)OC (configuration not stated)
# output 1.01
